Tested on: Micrococcus luteus
procedure_details: Antibacterial activity against Micrococcus luteus ATCC 4698 after 24 hrs by two-fold serial dilution assay
Format: functional, NCTC 2665
Some molecules, each annotated with its measured MIC.
State just the number; it will be interpreted in µM.

Consider the worked cases shown below.
molecule | experimental_result
COc1cc(-c2nc3ccccc3n2Cc2ccc(Cl)cc2)c2c(c1O)CN1CCc3cc4c(cc3C1C2)OCO4 (stereo not given) | 28.3
COc1cc(-c2nc3ccccc3n2Cc2ccc(F)cc2)c2c(c1O)CN1CCc3cc4c(cc3C1C2)OCO4.Cl (stereo not given) | 182
COc1cc(-c2nc3ccccc3n2CCCCCCn2c3ccccc3c3ccccc32)c2c(c1O)CN1CCc3cc4c(cc3C1C2)OCO4.Cl (stereo not given) | 293.3
COc1cc(-c2nc3ccccc3n2CCCCCCn2c3ccccc3c3ccccc32)c2c(c1O)CN1CCc3cc4c(cc3C1C2)OCO4 (stereo not given) | 741.1

Query: Provide Micrococcus luteus MIC reading for COc1cc(-c2nc3ccccc3n2Cc2ccc(Cl)cc2)c2c(c1O)CN1CCc3cc4c(cc3C1C2)OCO4.Cl (stereo not given) .
Response: 535.9

---

System: Bacillus subtilis
procedure_details: Antibacterial activity against Bacillus subtilis after 24 hrs by two-fold serial dilution assay
Assay type: functional
stated_conditions: Bacillus subtilis, 24 h; read-out: MIC
quantity: MIC (µM)
State just the number; it will be interpreted in µM.

compound | quantity | experimental_result
CCCCCCCCCCCCn1c(-c2cc(OC)c(O)c3c2CC2c4cc5c(cc4CCN2C3)OCO5)nc2ccccc21 (centres undefined) | MIC | 35

Query: Provide Bacillus subtilis MIC reading for COc1cc(-c2nc3ccccc3[nH]2)c2c(c1O)CN1CCc3cc4c(cc3C1C2)OCO4 (centres undefined) .
Response: 48.3

Query: Provide Bacillus subtilis MIC reading for O=C(N[C@H](CO)[C@H](O)c1ccc([N+](=O)[O-])cc1)C(Cl)Cl [CHLORAMPHENICOL] .
Response: 82.5

Query: Provide Bacillus subtilis MIC reading for COc1cc(-c2nc3ccccc3n2Cc2ccc(Cl)c(Cl)c2)c2c(c1O)CN1CCc3cc4c(cc3C1C2)OCO4 (centres undefined) .
Response: 22.2

---

Test system: Micrococcus luteus
procedure_details: Antibacterial activity against Micrococcus luteus ATCC 4698 after 24 hrs by two-fold serial dilution assay
Type: functional, NCTC 2665
stated_conditions: Micrococcus luteus, NCTC 2665, 24 h; read-out: MIC
Category | rule: reported MIC within range, see low: < 30 µM; middle: ≥ 30 µM and < 100 µM; high: ≥ 100 µM

Check out these entries, answers already filled in.
molecule | target_under_test | group
COc1cc(-c2nc3ccccc3n2Cc2ccccc2Cl)c2c(c1O)CN1CCc3cc4c(cc3C1C2)OCO4 (stereo not drawn) | Micrococcus luteus | low
COc1cc(-c2nc3ccccc3n2Cc2ccc(Cl)c(Cl)c2)c2c(c1O)CN1CCc3cc4c(cc3C1C2)OCO4 (stereo not drawn) | Micrococcus luteus | high
O=C(N[C@H](CO)[C@H](O)c1ccc([N+](=O)[O-])cc1)C(Cl)Cl [CHLORAMPHENICOL] | Micrococcus luteus | low
COc1cc(-c2nc3ccccc3[nH]2)c2c(c1O)CN1CCc3cc4c(cc3C1C2)OCO4 (stereo not drawn) | Micrococcus luteus | high
COc1ccc2cc3[n+](cc2c1OC)CCc1cc2c(cc1-3)OCO2 [BERBERINE] | Micrococcus luteus | high
CCn1cc(C(=O)O)c(=O)c2cc(F)c(N3CCNCC3)cc21 [NORFLOXACIN] | Micrococcus luteus | low
CCCCCCCCn1c(-c2cc(OC)c(O)c3c2CC2c4cc5c(cc4CCN2C3)OCO5)nc2ccccc21 (stereo not drawn) | Micrococcus luteus | middle
CCCCCCCCCCCCn1c(-c2cc(OC)c(O)c3c2CC2c4cc5c(cc4CCN2C3)OCO5)nc2ccccc21 (stereo not drawn) | Micrococcus luteus | high
COc1cc(-c2nc3cc(Cl)ccc3[nH]2)c2c(c1O)CN1CCc3cc4c(cc3C1C2)OCO4 (stereo not drawn) | Micrococcus luteus | high
COc1cc(-c2nc3ccccc3n2Cc2ccc(Cl)cc2Cl)c2c(c1O)CN1CCc3cc4c(cc3C1C2)OCO4 (stereo not drawn) | Micrococcus luteus | middle

Query: // return the class label for CCn1c(-c2cc(OC)c(O)c3c2CC2c4cc5c(cc4CCN2C3)OCO5)nc2ccccc21 (stereo not drawn)
Response: low

Query: // return the class label for COc1cc(C=O)c2c(c1O)CN1CCc3cc4c(cc3C1C2)OCO4 (stereo not drawn)
Response: high

Query: // return the class label for COc1cc(-c2nc3ccccc3n2Cc2cccc(Cl)c2)c2c(c1O)CN1CCc3cc4c(cc3C1C2)OCO4 (stereo not drawn)
Response: low

Query: // return the class label for COc1ccc2c(c1O)CN1CCc3cc4c(cc3C1C2)OCO4 (stereo not drawn)
Response: high

Query: // return the class label for CCCn1c(-c2cc(OC)c(O)c3c2CC2c4cc5c(cc4CCN2C3)OCO5)nc2ccccc21 (stereo not drawn)
Response: high

Query: // return the class label for COc1ccc(Cn2c(-c3cc(OC)c(O)c4c3CC3c5cc6c(cc5CCN3C4)OCO6)nc3ccccc32)cc1 (stereo not drawn)
Response: middle

Query: // return the class label for COc1cc(-c2nc3cc(F)ccc3[nH]2)c2c(c1O)CN1CCc3cc4c(cc3C1C2)OCO4 (stereo not drawn)
Response: middle
